PARAMETER: glass transition temperature (°C)

[[record]]
molecule = "*Oc1cccc(Sc2ccc(Oc3cccc4c3C(=O)N(c3ccc(Oc5cccc(Oc6ccc(N7C(=O)c8cccc(*)c8C7=O)cc6)c5)cc3)C4=O)cc2)c1 (repeat unit)"
meas_value = 230.00

[[record]]
molecule = "*Sc1ccc2c(c1)C(=O)N(c1ccc(Oc3ccc4ccccc4c3-c3c(Oc4ccc(N5C(=O)c6ccc(*)cc6C5=O)cc4C(F)(F)F)ccc4ccccc34)c(C(F)(F)F)c1)C2=O (repeat unit)"
meas_value = 273.00

[[record]]
molecule = "*c1cc(N2C(=O)c3ccc(-c4ccc5c(c4)C(=O)N(*)C5=O)cc3C2=O)ccc1OCC(F)(F)C(F)(F)C(F)(F)C(F)(F)C(F)(F)C(F)(F)C(F)(F)F (repeat unit)"
meas_value = 250.00

[[record]]
molecule = "*Sc1ccc2c(c1)C(=O)N(c1ccc(Oc3ccc(N4C(=O)c5cccc(*)c5C4=O)cc3)cc1)C2=O (repeat unit)"
meas_value = 267.50

[[record]]
molecule = "*c1ccc2c(c1)C(=O)N(c1ccc(OCC(F)(F)C(F)(F)C(F)(F)C(F)(F)C(F)(F)C(F)(F)C(F)(F)F)c(N3C(=O)c4ccc(C(*)(C(F)(F)F)C(F)(F)F)cc4C3=O)c1)C2=O (repeat unit)"
meas_value = 226.00

